Origin of the recorded values: the supplement of paper PMC9112550

# Test system: Escherichia coli TOP10;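 also: peptides expressed intracellularly from a pBAD plasmid library in pooled LB shake-flask culture, induced with 0.3% L-arabinose, DNA abundance read by NGS, three biological replicates, DESeq2 with apeglm shrinkage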
# Assay method text: shrunken log2 fold change of peptide-encoding DNA abundance (4.5 h post-induction vs induction); higher = less antimicrobial activity (less host growth inhibition)
# Condition details: time post-induction: 4.5 h; library: site-saturation at positions 5, 18, 19, 20
Metric name: shrunken log2 fold change

| Seq string | Target or test system | Metric name | Measured |
| --- | --- | --- | --- |
| RRIRGRPPRLPRPRPRPYGCPRP | Escherichia coli TOP10 | shrunken log2 fold change | -0.091 |
| RRIRIRPPRLPRPRPRPRGIPRP | Escherichia coli TOP10 | shrunken log2 fold change | -0.0459 |
| RRIRYRPPRLPRPRPRPAMKPRP | Escherichia coli TOP10 | shrunken log2 fold change | -0.000923 |
| RRIRHRPPRLPRPRPRPVDVPRP | Escherichia coli TOP10 | shrunken log2 fold change | -0.119 |
| RRIRDRPPRLPRPRPRPDIHPRP | Escherichia coli TOP10 | shrunken log2 fold change | -0.0156 |
| RRIRERPPRLPRPRPRPRQRPRP | Escherichia coli TOP10 | shrunken log2 fold change | 0.32 |
| RRIRGRPPRLPRPRPRPHSWPRP | Escherichia coli TOP10 | shrunken log2 fold change | 0.417 |
| RRIRGRPPRLPRPRPRPGDCPRP | Escherichia coli TOP10 | shrunken log2 fold change | 0.824 |
| RRIRRRPPRLPRPRPRPNWCPRP | Escherichia coli TOP10 | shrunken log2 fold change | 0.177 |
| RRIRLRPPRLPRPRPRPSDKPRP | Escherichia coli TOP10 | shrunken log2 fold change | -0.179 |
| RRIRFRPPRLPRPRPRPKEPPRP | Escherichia coli TOP10 | shrunken log2 fold change | -0.135 |
| RRIRSRPPRLPRPRPRPWHMPRP | Escherichia coli TOP10 | shrunken log2 fold change | 0.17 |
| RRIRDRPPRLPRPRPRPKIWPRP | Escherichia coli TOP10 | shrunken log2 fold change | 0.127 |
| RRIRCRPPRLPRPRPRPPNHPRP | Escherichia coli TOP10 | shrunken log2 fold change | -0.104 |
| RRIRFRPPRLPRPRPRPYPKPRP | Escherichia coli TOP10 | shrunken log2 fold change | -0.323 |
| RRIRKRPPRLPRPRPRPTGMPRP | Escherichia coli TOP10 | shrunken log2 fold change | 0.128 |
| RRIRFRPPRLPRPRPRPDNLPRP | Escherichia coli TOP10 | shrunken log2 fold change | 0.0632 |
| RRIRDRPPRLPRPRPRPHWNPRP | Escherichia coli TOP10 | shrunken log2 fold change | -0.201 |
| RRIRMRPPRLPRPRPRPDGGPRP | Escherichia coli TOP10 | shrunken log2 fold change | 0.135 |
| RRIRSRPPRLPRPRPRPRPLPRP | Escherichia coli TOP10 | shrunken log2 fold change | 0.171 |
| RRIRGRPPRLPRPRPRPEFCPRP | Escherichia coli TOP10 | shrunken log2 fold change | 1.23 |
| RRIRCRPPRLPRPRPRPFDMPRP | Escherichia coli TOP10 | shrunken log2 fold change | -0.309 |
| RRIRFRPPRLPRPRPRPQEMPRP | Escherichia coli TOP10 | shrunken log2 fold change | 0.126 |
| RRIRYRPPRLPRPRPRPELPPRP | Escherichia coli TOP10 | shrunken log2 fold change | 0.0248 |
| RRIRHRPPRLPRPRPRPAWPPRP | Escherichia coli TOP10 | shrunken log2 fold change | 0.613 |
| RRIRHRPPRLPRPRPRPQMWPRP | Escherichia coli TOP10 | shrunken log2 fold change | 2.46e-05 |
| RRIRNRPPRLPRPRPRPPAYPRP | Escherichia coli TOP10 | shrunken log2 fold change | 0.0856 |
| RRIRPRPPRLPRPRPRPVGIPRP | Escherichia coli TOP10 | shrunken log2 fold change | 0.0618 |
| RRIRCRPPRLPRPRPRPLTIPRP | Escherichia coli TOP10 | shrunken log2 fold change | -0.66 |
| RRIRSRPPRLPRPRPRPMKAPRP | Escherichia coli TOP10 | shrunken log2 fold change | -0.00133 |
| RRIRMRPPRLPRPRPRPRVWPRP | Escherichia coli TOP10 | shrunken log2 fold change | 2.08 |
| RRIRVRPPRLPRPRPRPFAEPRP | Escherichia coli TOP10 | shrunken log2 fold change | 0.171 |
| RRIRFRPPRLPRPRPRPSVYPRP | Escherichia coli TOP10 | shrunken log2 fold change | -0.158 |
| RRIRRRPPRLPRPRPRPFVWPRP | Escherichia coli TOP10 | shrunken log2 fold change | -0.218 |
| RRIRWRPPRLPRPRPRPQPLPRP | Escherichia coli TOP10 | shrunken log2 fold change | -0.0153 |
| RRIRTRPPRLPRPRPRPVCEPRP | Escherichia coli TOP10 | shrunken log2 fold change | 0.243 |
| RRIRCRPPRLPRPRPRPGERPRP | Escherichia coli TOP10 | shrunken log2 fold change | 0.01 |
| RRIRHRPPRLPRPRPRPKAPPRP | Escherichia coli TOP10 | shrunken log2 fold change | 0.0258 |
| RRIRMRPPRLPRPRPRPSNGPRP | Escherichia coli TOP10 | shrunken log2 fold change | -0.0373 |
| RRIRERPPRLPRPRPRPRECPRP | Escherichia coli TOP10 | shrunken log2 fold change | -0.018 |
| RRIRWRPPRLPRPRPRPSYYPRP | Escherichia coli TOP10 | shrunken log2 fold change | -0.292 |
